# Measured target: HLA-DRB1*04:01 (Homo sapiens, UniProt P01903+P01911, A100K/A169T/F76Y/I96L/K127E/L162R/M171V/N62H/P40V/Q125Y/R42H/S133A/S149N/S66Y/V115G/V209L/W38E)
# Construct: EBV transformed homozygous cell lines were used as sources of MHC molecules; endogenous in cells; host or cells: EBV transformed homozygous cell lines
# Experiment: HLA class II peptide binding, inhibition of radiolabeled peptide binding to purified MHC
# Condition summary: citrullinated 15-mer peptide (X = citrulline); purified HLA-DRB1*04:01; read-out: DRB1*04:01 binding capacity, Cit peptide (IC50 nM)
Square brackets hold non-standard residues; d marks the D form. Peptide text beside a SMILES is read from it. Cit = NC(=O)NCCC[C@H](N)C(=O)O
Measured quantity: IC50

| Compound | Result |
| --- | --- |
| CC[C@H](C)[C@H](NC(=O)CN)C(=O)N[C@@H](C)C(=O)NCC(=O)N[C@@H](C)C(=O)N1CCC[C@H]1C(=O)NCC(=O)N[C@@H](Cc1ccccc1)C(=O)N1CCC[C@H]1C(=O)NCC(=O)N1CCC[C@H]1C(=O)N[C@@H](CCCNC(N)=O)C(=O)NCC(=O)N1CCC[C@H]1C(=O)N1CCC[C@H]1C(=O)O [GIAGAPGFPGPXGPP] (H-GIAGAPGFPGP[Cit]GPP-OH) | > 40000 nM |
| C[C@H](NC(=O)CNC(=O)[C@@H]1CCCN1C(=O)[C@@H]1CCCN1C(=O)CNC(=O)[C@H](CCC(N)=O)NC(=O)[C@H](C)NC(=O)CNC(=O)[C@H](CCCNC(N)=O)NC(=O)[C@H](C)NC(=O)CNC(=O)[C@H](CCCCN)NC(=O)[C@@H]1CCCN1C(=O)CNC(=O)[C@@H](N)[C@@H](C)O)C(=O)O [TGPKGAXGAQGPPGA] (H-TGPKGA[Cit]GAQGPPGA-OH) | > 40000 nM |
| CSCC[C@H](NC(=O)[C@H](Cc1ccc(O)cc1)NC(=O)[C@H](CCC(N)=O)NC(=O)[C@H](CC(C)C)NC(=O)[C@@H]1CCCN1C(=O)[C@H](CC(=O)O)NC(=O)[C@@H]1CCCN1C(=O)CNC(=O)[C@H](CCCCN)NC(=O)[C@H](CCC(=O)O)NC(=O)[C@H](CCCNC(N)=O)NC(=O)[C@@H]1CCCN1C(=O)CNC(=O)[C@@H](N)CC(C)C)C(=O)N[C@@H](CCCNC(=N)N)C(=O)O [LGPXEKGPDPLQYMR] (H-LGP[Cit]EKGPDPLQYMR-OH) | > 40000 nM |
